Biological target: PGR (gene 5241) (UniProt P06401)
Sequence (P06401 whole entry, looked up): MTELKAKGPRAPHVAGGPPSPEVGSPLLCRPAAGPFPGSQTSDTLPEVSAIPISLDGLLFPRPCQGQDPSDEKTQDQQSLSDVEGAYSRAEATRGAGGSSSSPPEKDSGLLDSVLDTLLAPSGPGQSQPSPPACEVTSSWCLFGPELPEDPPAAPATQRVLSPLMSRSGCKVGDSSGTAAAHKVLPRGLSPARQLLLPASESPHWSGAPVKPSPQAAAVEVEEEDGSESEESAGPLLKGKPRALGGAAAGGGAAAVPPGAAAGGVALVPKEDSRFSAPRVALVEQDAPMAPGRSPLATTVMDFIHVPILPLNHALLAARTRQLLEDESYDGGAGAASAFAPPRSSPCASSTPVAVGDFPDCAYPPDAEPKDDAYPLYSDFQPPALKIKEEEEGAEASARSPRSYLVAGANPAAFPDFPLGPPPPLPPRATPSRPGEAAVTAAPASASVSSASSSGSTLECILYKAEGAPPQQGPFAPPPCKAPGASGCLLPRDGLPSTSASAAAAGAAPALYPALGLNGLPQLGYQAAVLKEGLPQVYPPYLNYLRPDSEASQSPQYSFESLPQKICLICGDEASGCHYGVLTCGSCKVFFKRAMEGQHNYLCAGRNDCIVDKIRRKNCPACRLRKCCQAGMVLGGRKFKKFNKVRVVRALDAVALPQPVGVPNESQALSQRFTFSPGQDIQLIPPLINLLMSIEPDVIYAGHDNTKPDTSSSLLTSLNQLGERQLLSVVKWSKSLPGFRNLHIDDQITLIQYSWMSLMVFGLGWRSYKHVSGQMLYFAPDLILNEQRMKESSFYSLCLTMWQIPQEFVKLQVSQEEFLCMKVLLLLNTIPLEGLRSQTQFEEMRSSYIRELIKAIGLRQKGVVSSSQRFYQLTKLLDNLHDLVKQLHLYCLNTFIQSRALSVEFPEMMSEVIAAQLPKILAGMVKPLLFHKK
Assay: TOX21_PR_BLA_Followup_Antagonist_ratio: Tox21 HEK293 Progesterone Receptor (PR) Antagonism Beta-lactamase Follow-Up Assay, Ratio (AID 2283934);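 further: PR-UAS-bla HEK293T cells stimulated with 1 nM R5020 agonist for 16 hr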
Active and inactive are the calls of the source. How the source made its calls: active means hit-call score of the fitted dose curve at least 0.9, where 1 is the maximum; inconclusive means response in the unintended direction; inactive means score below 0.9.
For each record, write down the corresponding AC50.

// fetch AC50 for "Cc1ccccc1OP(=O)(Oc1ccccc1C)Oc1ccccc1C" ; system: PGR (gene 5241) (UniProt P06401)
39.9 µM (active)

// fetch AC50 for CC(O)(CS(=O)(=O)c1ccc(F)cc1)C(=O)Nc1ccc(C#N)c(C(F)(F)F)c1 (configuration not stated) ; system: PGR (gene 5241) (UniProt P06401)
5.64 µM (active)

// fetch AC50 for "O=[N+]([O-])c1ccc(Nc2ccccc2)cc1" ; system: PGR (gene 5241) (UniProt P06401)
11.4 µM (active)

// fetch AC50 for "OC(c1ccc(Cl)cc1)(c1ccc(Cl)cc1)c1cccnc1" ; system: PGR (gene 5241) (UniProt P06401)
29.3 µM (active)

// fetch AC50 for "Nc1ccc(-c2ccccc2)cc1" ; system: PGR (gene 5241) (UniProt P06401)
22.3 µM (active)

// fetch AC50 for CCCSP(=S)(OCC)Oc1ccc(Cl)cc1Cl (configuration not stated) ; system: PGR (gene 5241) (UniProt P06401)
22.6 µM (active)

// fetch AC50 for "O=S(=O)(c1ccc(Cl)cc1)c1cc(Cl)c(Cl)cc1Cl" ; system: PGR (gene 5241) (UniProt P06401)
27.3 µM (active)

====

Read-out: Tissue Factor, F3 (gene 2152)
Test: BSK_CASM3C_TissueFactor: BioMAP Diversity Plus: CASM3C Assay for Tissue Factor Biomarker Activity (AID 2283052);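 further: cell surface tissue factor protein level read by ELISA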
Settings: primary human coronary artery smooth muscle cells; actives raise or lower the signal
Activity calls are given as the source filed them. The calls were made as follows: active = hit-call score of the fitted dose curve at least 0.9, where 1 is the maximum; inactive = score below 0.9.
Select the matching outcome among active, inactive

Please state the recorded outcome for this compound: "c1ccc2sc(SNC3CCCCC3)nc2c1"
inactive

Please state the recorded outcome for this compound: "Clc1cccc(Cl)c1"
inactive

Please state the recorded outcome for this compound: "O=[N+]([O-])c1ccc(Nc2ccccc2)cc1"
inactive

Please state the recorded outcome for this compound: CC(C)=CC1C(C(=O)OCc2cccc(Oc3ccccc3)c2)C1(C)C (stereo unspecified)
active

Please state the recorded outcome for this compound: "Oc1cccc(-c2ccccc2)c1"
active

Please state the recorded outcome for this compound: "COCC(=O)N(c1c(C)cccc1C)[C@H](C)C(=O)OC"
inactive

Please state the recorded outcome for this compound: "CC1(C)[C@H](C(=O)O[C@H](C#N)c2cccc(Oc3ccccc3)c2)[C@@H]1/C=C(\Cl)C(F)(F)F"
inactive

Please state the recorded outcome for this compound: "Cc1ccccc1OP(=O)(Oc1ccccc1C)Oc1ccccc1C"
inactive

Please state the recorded outcome for this compound: CC(C)(COCC1CO1)COCC1CO1 (stereo unspecified)
inactive

Please state the recorded outcome for this compound: "Cc1ccc2nc3sc(=O)sc3nc2c1"
inactive

Please state the recorded outcome for this compound: "CC(C)O.CC(C)O.OCCN(CCO)CCO.OCCN(CCO)CCO.[Ti]"
inactive

Please state the recorded outcome for this compound: "O=C1C=CC(=O)c2ccccc21"
active

Please state the recorded outcome for this compound: "O=[N+]([O-])c1cccc2ccccc12"
inactive

Please state the recorded outcome for this compound: CCC(C)(C#N)N=NC(C)(C#N)CC (stereo unspecified)
inactive

Please state the recorded outcome for this compound: "Cc1cc(Cl)ccc1N"
inactive

Please state the recorded outcome for this compound: CC(C=O)Cc1ccc2c(c1)OCO2 (stereo unspecified)
inactive

Please state the recorded outcome for this compound: O=c1oc2ccccc2c(O)c1C(CC(O)c1ccc(-c2ccc(Br)cc2)cc1)c1ccccc1 (stereo unspecified)
active

Please state the recorded outcome for this compound: "Nc1c(Oc2ccccc2)cc(O)c2c1C(=O)c1ccccc1C2=O"
inactive

Please state the recorded outcome for this compound: "O=C(CCl)NCO"
inactive

Please state the recorded outcome for this compound: OC(Cc1ccccc1Cl)(Cn1cncn1)C1(Cl)CC1 (stereo unspecified)
inactive

Please state the recorded outcome for this compound: "[Cl][Sn]([c]1ccccc1)([c]1ccccc1)[c]1ccccc1"
active

Please state the recorded outcome for this compound: "OCCN(CCO)CCO"
inactive

Please state the recorded outcome for this compound: OC(Cc1ccccc1Cl)(Cn1[nH]cnc1=S)C1(Cl)CC1 (stereo unspecified)
active

Please state the recorded outcome for this compound: "CC(C)N(C(=O)CCl)c1ccccc1"
active

Please state the recorded outcome for this compound: "Oc1c(Br)cc(Br)cc1Br"
inactive

Please state the recorded outcome for this compound: "O=C(O)COc1cc(Cl)c(Cl)cc1Cl"
active

Please state the recorded outcome for this compound: CCOC(=O)C(SP(=S)(OC)OC)c1ccccc1 (stereo unspecified)
active

Please state the recorded outcome for this compound: N#CCCC(Br)(C#N)CBr (stereo unspecified)
active

Please state the recorded outcome for this compound: "Cc1cccc(OP(=O)(Oc2cccc(C)c2)Oc2cccc(C)c2)c1"
inactive

Please state the recorded outcome for this compound: "Clc1cccc(Cl)c1Cl"
inactive

Please state the recorded outcome for this compound: "NC(=O)CCl"
inactive

Please state the recorded outcome for this compound: "CCCCCCCCCCCCc1cccc(S(=O)(=O)O)c1"
inactive

Please state the recorded outcome for this compound: "Cc1cc(C)cc(C)c1"
inactive

Please state the recorded outcome for this compound: "CCOP(=S)(OCC)OP(=S)(OCC)OCC"
inactive

Please state the recorded outcome for this compound: "CCOC(=O)CCN(SN(C)C(=O)Oc1cccc2c1OC(C)(C)C2)C(C)C"
active

Please state the recorded outcome for this compound: "Oc1c(Cl)cc(Cl)cc1Cl"
inactive

====

Target: CCAAT/enhancer-binding protein beta (Homo sapiens) (UniProt P17676)
Sequence (P17676 whole entry, looked up): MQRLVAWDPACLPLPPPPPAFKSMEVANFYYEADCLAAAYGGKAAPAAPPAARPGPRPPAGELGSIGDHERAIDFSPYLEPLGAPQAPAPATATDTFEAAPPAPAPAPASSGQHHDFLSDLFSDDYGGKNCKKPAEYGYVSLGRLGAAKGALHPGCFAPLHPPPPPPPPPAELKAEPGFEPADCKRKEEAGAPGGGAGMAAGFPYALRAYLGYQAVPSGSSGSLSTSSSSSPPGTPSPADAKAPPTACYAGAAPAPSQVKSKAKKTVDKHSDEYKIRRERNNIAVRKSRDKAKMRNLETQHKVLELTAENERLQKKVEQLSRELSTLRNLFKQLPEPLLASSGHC
Assay: ATG_C_EBP_CIS: Attagene CIS-FACTORIAL HepG2 Assay for human CCAAT/Enhancer Binding Protein (C/EBP) beta (AID 2282927)
Conditions: HepG2 Attagene cis-factorial transcription factor reporter; actives raise or lower the signal
Protocol: ATG_CIS is a cell-based, multiplexed-readout assay that uses HepG2, a human liver cell line, with measurements taken at 24 hours after chemical dosing in a 24-well plate.ATG_C_EBP_CIS is one of 52 assay component(s) measured or calculated from the ATG_CIS assay. […] This assay endpoint, ATG_C_EBP_CIS, was analyzed with bidirectional fitting relative to DMSO as the negative control and baseline of activity. […]
Active and inactive are the calls of the source. The calls were made as follows: active = hit-call score of the fitted dose curve at least 0.9, where 1 is the maximum; inactive = score below 0.9.
Select the matching outcome among active, inactive

Please state the recorded outcome for this compound: "O=C1C[C@@H]2OCC=C3CN4CC[C@]56c7ccccc7N1[C@H]5[C@H]2[C@H]3C[C@H]46"
inactive

Please state the recorded outcome for this compound: "CCOP(=S)(OCC)SCSc1cc(Cl)ccc1Cl"
inactive

Please state the recorded outcome for this compound: "O=C(O)COc1cc(Cl)c(Cl)cc1Cl"
inactive

Please state the recorded outcome for this compound: "ClCc1ccccc1CCl"
inactive

Please state the recorded outcome for this compound: "Cc1cc(Cl)ccc1N"
inactive

Please state the recorded outcome for this compound: "CCC[CH2][Sn]([CH2]CCC)([CH2]CCC)[CH2]CCC"
active

Please state the recorded outcome for this compound: "Clc1cccc(Cl)c1"
inactive

Please state the recorded outcome for this compound: CCCCC(CC)C(=O)Cl (centres undefined)
inactive

Please state the recorded outcome for this compound: "O=[N+]([O-])c1cc([As](=O)(O)O)ccc1O"
inactive

Please state the recorded outcome for this compound: "CC(C)(C#N)N=NC(C)(C)C#N"
inactive

Please state the recorded outcome for this compound: "Cc1cc(Cl)ccc1O"
inactive

Please state the recorded outcome for this compound: "CC(C)CC(C)(c1ccc(O)cc1)c1ccc(O)cc1"
inactive

Please state the recorded outcome for this compound: "NNCCO"
inactive

Please state the recorded outcome for this compound: "CNC(=O)O/N=C/C(C)(C)S(C)(=O)=O"
inactive

====

Read-out: Cytochrome P450 (CYP1A2), CYP1A2 (gene 1544)
Test: LTEA_HepaRG_CYP1A2: Life Technologies and Expression Analysis (LTEA) Assay for Cytochrome P450 (CYP1A2) using HepaRG (AID 2283479)
Settings: mRNA level, 48 h; actives raise or lower the signal
Protocol: LTEA_HepaRG is a cell based, multiplexed-readout assay that uses HepaRG, a human liver cell line, with measurements taken at 48 hours after chemical dosing on a 96-well plate.LTEA_HepaRG_CYP1A2 is one of 102 assay component(s) measured in the LTEA HepaRG cell culture assay. It is a marker of NR mediated metabolism.Data from the assay component LTEA_HepaRG_CYP1A2 was analyzed into 1 endpoint. […]
The source made the active and inactive calls. How the source made its calls: active means hit-call score of the fitted dose curve at least 0.9, where 1 is the maximum; inactive means score below 0.9.
Select the matching outcome among y = active, n = inactive

Please state the recorded outcome for this molecule: "CN(C)C(=S)S"
y

Please state the recorded outcome for this molecule: "Cc1cc(C)cc(C)c1"
n

Please state the recorded outcome for this molecule: "Oc1cc(Cl)c(Cl)cc1Cl"
n

Please state the recorded outcome for this molecule: "OCCN(CCO)CCO"
n

Please state the recorded outcome for this molecule: "O=C(N[C@H]1CN2CCC1CC2)c1ccc2c(c1)OCCO2"
n

Please state the recorded outcome for this molecule: "CC(C)(C)c1ccccc1O"
n

Please state the recorded outcome for this molecule: "COc1ccccc1N"
n
